target: KMO mouse enzyme (Mus musculus); construct: KMO enzyme prepared at Evotec from mouse liver (4-6 weeks old) via mitochondria isolation; from tissue; host or cells: mouse liver (4-6 weeks old), mitochondria isolation, prepared at Evotec; assay: KMO mouse enzyme assay: L-Kynurenine hydroxylation to 3-Hydroxy-Kynurenine monitored by LC/MS (MRM); type: biochemical; conditions: compound at 10 μM; KMO enzyme from mouse liver mitochondria; read-out: INH.Mouse @ 10 μM
Sequence (Q91WN4 whole entry): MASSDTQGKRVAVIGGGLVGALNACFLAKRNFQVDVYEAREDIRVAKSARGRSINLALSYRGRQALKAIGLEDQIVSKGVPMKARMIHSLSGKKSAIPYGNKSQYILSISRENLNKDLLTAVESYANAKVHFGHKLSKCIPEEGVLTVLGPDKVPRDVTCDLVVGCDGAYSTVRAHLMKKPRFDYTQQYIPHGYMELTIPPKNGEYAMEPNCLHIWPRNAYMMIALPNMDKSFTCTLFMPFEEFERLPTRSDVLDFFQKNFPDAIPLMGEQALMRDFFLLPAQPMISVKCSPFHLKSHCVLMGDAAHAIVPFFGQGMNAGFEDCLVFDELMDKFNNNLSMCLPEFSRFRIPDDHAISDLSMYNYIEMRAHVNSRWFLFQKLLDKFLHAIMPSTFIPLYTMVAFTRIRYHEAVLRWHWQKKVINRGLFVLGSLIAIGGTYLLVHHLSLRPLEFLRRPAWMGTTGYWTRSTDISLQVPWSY
inhibition at 10 µM reference
Supply the numeric figure in %, leaving out any unit text.

Examples from the recorded data:
1) COc1cncc(NC(=O)c2cc(-c3ccc(Cl)c(Cl)c3)ncn2)c1
100
2) Cc1nsc(NC(=O)c2cc(-c3cccc(Cl)c3)ncn2)n1
85.4
3) O=C(O)c1cc(-c2cncc(Cl)c2)ncn1
91.7

-- ask Please report the recorded inhibition at 10 µM for "O=C(c1cc(-c2cccc(Cl)c2)ncn1)N1CCc2cc(Cl)ccc21" .
-- reply 100

-- ask Repeat with "O=C(Nc1cncnc1)c1cc(-c2cccc(Cl)c2)ccn1"
-- reply 60.8

-- ask What about "COC(=O)c1cc(-c2cccc(F)c2)ncn1" ?
-- reply 100

-- ask Would you mind doing "COC(=O)c1cc(-c2ccc(C(F)(F)F)c(Cl)c2)ncn1" as well?
-- reply 100

-- ask Check "COc1cncc(NC(=O)c2cc(-c3cc(Cl)cc(Cl)c3)ccn2)c1" too.
-- reply 52.6

-- ask Another compound to check: "COc1ccc(-c2cc(C(=O)O)ncn2)cc1"
-- reply 100

-- ask Then this compound: "O=C(Nc1ccccc1)c1cc(-c2cc(Cl)cc(Cl)c2)ncn1"
-- reply 77.6

-- ask Okay, and "COC(=O)c1cc(-c2cccc(Cl)c2F)ncn1" ?
-- reply 100

-- ask Next up: "O=C(Nc1ccncc1)c1cc(-c2ccc(Cl)c(Cl)c2)ncn1"
-- reply 90.1

-- ask // same read-out, input: "O=C(c1cc(-c2cccc(Cl)c2)ncn1)N1CCOCC1"
-- reply 100

-- ask Note, next up: "COC(=O)c1cc(-c2cccc(OC)c2)ncn1"
-- reply 77.5

-- ask What about this compound? "COC(=O)c1cc(-c2ccccc2)ncn1"
-- reply 100

-- ask Try the compound "O=C(O)c1cc(-c2cc(Cl)ccc2F)ncn1"
-- reply 100

-- ask Item: "Cc1ncc(NC(=O)c2cc(-c3ccc(Cl)c(Cl)c3)ncn2)cn1"
-- reply 85.6

-- ask Also, "COc1ccc(NC(=O)c2cc(-c3cccc(Cl)c3)ncn2)cc1" please.
-- reply 100

-- ask Next up: "COC(=O)c1cc(-c2cncc(Cl)c2)ncn1"
-- reply 93.2

-- ask Input "O=C(Nc1cncnc1)c1cc(-c2ccc(F)c(F)c2)ncn1"
-- reply 100

-- ask Another compound to look at: "Cc1nc(C(=O)O)cc(-c2cccc(Cl)c2)n1"
-- reply 100

-- ask What about "C[C@H](O)CNC(=O)c1cc(-c2cccc(Cl)c2)ncn1" ?
-- reply 87.3

-- ask Request: "O=C(Nc1ccc2c(c1)OC(F)(F)O2)c1cc(-c2cccc(Cl)c2)ncn1"
-- reply 97.7

-- ask Request: "O=C(Nc1cccnc1)c1cc(-c2cccc(Cl)c2)ncn1"
-- reply 98.6

-- ask Try "O=C(NCCO)c1cc(-c2cccc(Cl)c2)ncn1" next.
-- reply 95.8

-- ask How about this compound: "CN1CCN(C(=O)c2cc(-c3cccc(Cl)c3)ncn2)CC1"
-- reply 64.3

-- ask And the next one, "COC(=O)c1cc(-c2ccc(OC)c(Cl)c2)ncn1" ?
-- reply 100
